compounds and their reported proliferation
test: inducers of MIN6 beta-cell proliferation, primary screen, ATP luminescence, uHTS (AID 2380); conditions: MIN6 cells proliferation, ATPlite luminescence, 48 h; at 10 µM; hits give high values; 100% = growth in 10% serum; cells starved in 0.2% serum;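 also: 0% = DMSO-treated cells in low-serum medium and 100% = 10% serum control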
The campaign covered roughly 330,000 compounds. About 960 (0.29%) were called active. Only a selection was taken, and actives are over-represented in it overall.
Dear colleague, please return just the value in %, with no unit written.

Some solved cases for reference:
COc1ccccc1OCc1ccc(C(=O)NC(C)c2ccccc2)o1 (configuration not stated): 0.18
COc1ccccc1C(=O)N1CCN=C1SCc1cccnc1: 0.39
Cc1nn(C(C)C(=O)N2CCOCC2)c(=O)c2nn(-c3ccccc3)c(C)c12 (configuration not stated): -0.46

// query proliferation lookup needed for CNc1[nH]ncc1[N+](=O)[O-] , thanks.
// result 3.19

// query Repeat with CC(C)(C)N(CC#CCC(O)(c1ccccc1)C1CCCC1)CCO (configuration not stated)
// result 2.2

// query Repeat with Cc1cccc(NS(=O)(=O)c2cccc(C(=O)NNC(=O)c3ccccc3O)c2)c1
// result 1.68

// query Repeat with CCC(C(=O)NC1CCCC1)N(C(=O)Cn1nnc(-c2ccc(C)o2)n1)c1ccc(OC)c(OC)c1 (configuration not stated)
// result 5.41
